TEST_NAME: Mycobacterium tuberculosis growth inhibition, primary screen (AID 1259343)
APPLIED_CONDITIONS: at 10 µM, active compounds read high
Among all 6,200 compounds or so, about 2,900 (47%) were called active. The set was probably picked from earlier hits. The list shows a part of the results.
# inhibition annotations
The response must be a number in % with no trailing unit.

What value of inhibition has been recorded for this entry: C=CCN=c1scc(-c2ccc(C)cc2)n1N=Cc1ccc(F)cc1
-4.92

What value of inhibition has been recorded for this entry: O=C(Cc1cc(-c2ccc(F)cc2F)on1)NCCC1=CCCCC1
85.6

What value of inhibition has been recorded for this entry: O=C(OCc1cc(-c2ccc(F)cc2F)on1)C1CC1
38.6

What value of inhibition has been recorded for this entry: Cc1nc2cc(NC(=O)C(C)Oc3ccc(Cl)cc3)ccc2o1 (stereo unspecified)
-4.42

What value of inhibition has been recorded for this entry: C(=Nn1c(-c2ccccc2)csc1=NCc1ccccc1)c1cccnc1
28.2

What value of inhibition has been recorded for this entry: CSc1nc2ccc(N=Cc3c[nH]c4ccccc34)cc2s1
95.1

----------
# inhibition annotations
TEST_NAME: Mycobacterium tuberculosis growth inhibition, primary screen (AID 1259343)
APPLIED_CONDITIONS: at 10 µM, active compounds read high
Out of some 6,200 compounds screened, about 2,900 (47%) were called active. So high a share suggests a set chosen from earlier hits. This is one part of the list.
The response must be a number in % with no trailing unit.

>>> print(df.to_string())
                                   molecule  reported_result
0  CCC(=O)Nc1sc2c(c1-c1nc3ccccc3s1)CCN(CC)C2             60.8
1  CCC(=O)Nc1sc2c(c1-c1nc3ccccc3s1)CCN(C)C2             30.1
2  Cc1ccc(CC(=O)C(C#N)c2nc3sc(C)c(C)c3c(=O)[nH]2)cc1 (stereo unspecified)             37.3

What value of inhibition has been recorded for this entry: Nc1cc([N+](=O)[O-])ccc1NS(=O)(=O)c1ccc(Cl)cc1
-52.1

What value of inhibition has been recorded for this entry: COc1cc2c(cc1/C=C/C(=O)N1CCc3ccccc31)OC(C)C2 (stereo unspecified)
59.3

What value of inhibition has been recorded for this entry: Nc1ccc(S(=O)(=O)Nc2ccc([N+](=O)[O-])cc2O)cc1
53.9

What value of inhibition has been recorded for this entry: Cc1ccc(-c2c(C)sc3nc(CN4CCN(Cc5ccccc5)CC4)[nH]c(=O)c23)cc1
96.5

What value of inhibition has been recorded for this entry: CN1CCC[C@@H]1CCO[C@](C)(c1ccccc1)c1ccc(Cl)cc1
37.7

----------
TEST_NAME: Mycobacterium tuberculosis growth inhibition, primary screen (AID 1259343)
APPLIED_CONDITIONS: at 10 µM
The campaign covered roughly 6,200 compounds. About 2,900 (47%) were called active. No stated cut-off is given here; in the data, active means inhibition above about 50%; inactive means the rest. So high a share suggests a set chosen from earlier hits. This is one part of the list.
API: response.call in TRUE (active), FALSE (inactive)

Recorded results for 5 compounds are shown here.
>>> print(df.to_string())
                                   compound    cat
0  C=CCOc1ccc(C=C2N=C(c3ccccc3I)OC2=O)cc1OC  FALSE
1  Fc1ccc(C2C=C3Oc4ccccc4N=C3NN2)cc1 (stereo unspecified)   TRUE
2  O=c1[nH]n(-c2ccc([N+](=O)[O-])cc2)c(=O)c2ccccc12   TRUE
3             Cc1cc(C)cc(-c2n[nH]c(=S)o2)c1   TRUE
4                  CC(C)CSc1nnc(C2CCCCC2)o1  FALSE

In this assay, the call recorded for O=c1c2ccccc2nc(SCc2ccc([N+](=O)[O-])cc2)n1CC1CCCO1 (stereo unspecified) was what?
FALSE
